The reported measurements were obtained from ChEMBL document CHEMBL6109047.

- System: Trypanosoma cruzi
- experimental.details: Antitrypanosomal activity against bloodstream […] form of Trypanosoma cruzi Y
- Assay type: functional, organism-based
assay.metric: IC50 (µM)

[[record]]
compound = "Fc1cccc(Nc2cnc3ccccc3c2)c1"
test_system = "Trypanosoma cruzi"
assay_metric = "IC50"
recorded_measurement = 22.8

[[record]]
compound = "COC(=O)/C=C/c1ccc2c(c1)C(C(=O)OC)C(c1ccc(O)cc1)O2 (centres undefined)"
test_system = "Trypanosoma cruzi"
assay_metric = "IC50"
recorded_measurement = 3.26


[I] Clc1ccc(Nc2cnc3ccccc3c2)cc1
[II] Fc1ccc(Nc2cnc3ccccc3c2)cc1
query: Given I and given II , which shows the smaller recorded IC50? Reply with the label of the item you choose.
result: II
(II: 10.9 µM, I: 25.8 µM)
